Give measured pIC50 for each item. Keep answers brief.
test system: NCI-H928; assay: Cytotoxicity expressed as the concentration that inhibited incorporation of [3H]-thymidine into cellular DNA of human lung carcinoma cells (H928); type: functional, cell-based
# pIC50 is unitless: minus log10 of the molar concentration; print number only

// field: pIC50; key: CC[C@@]1(O)C(=O)OCc2c1cc1n(c2=O)Cc2cc3c(NC(=O)OCc4ccc(O[C@@H]5O[C@H](C(=O)O)[C@@H](O)[C@H](O)[C@H]5O)cc4)cccc3nc2-1 ; value = 6.52

// field: pIC50; key: CC[C@@]1(O)C(=O)OCc2c1cc1n(c2=O)Cc2cc3ccccc3nc2-1 [CAMPTOTHECIN] ; value = 8.11

// field: pIC50; key: CC[C@@]1(O)C(=O)OCc2c1cc1n(c2=O)Cc2cc3c(N)cccc3nc2-1 [9-AMINOCAMPTOTHECIN] ; value = 8.10

Data provenance: ChEMBL document CHEMBL1132107
